Subject of test: wild type human RORγt LBD (Homo sapiens)
Construct: expressed in transfected cells; host or cells: HEK293T
Sequence (P51449 269-508 limits assumed): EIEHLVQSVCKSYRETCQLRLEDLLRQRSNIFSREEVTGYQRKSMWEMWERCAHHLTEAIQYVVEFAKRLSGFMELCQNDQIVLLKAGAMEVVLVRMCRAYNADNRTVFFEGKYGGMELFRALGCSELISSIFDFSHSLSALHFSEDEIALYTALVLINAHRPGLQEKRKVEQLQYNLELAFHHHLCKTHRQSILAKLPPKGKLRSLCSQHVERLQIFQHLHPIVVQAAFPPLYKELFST
Protocol summary: RORγt Reporter Assay (GAL4-RORγt LBD luciferase in HEK293T cells)
Assay type: cell-based
Condition info: HEK-293T, read-out: RORγt reporter Assay, % inhibition @ 6 µM, @ 6 µM; HEK293T cells
Attribute measured: inhibition at 6 µM (%)
Report only the number, with the unit % understood.

Find inhibition at 6 µM (wild type human RORγt LBD (Homo sapiens)) for the entry Cc1nc(C)c(C(O)(c2ccc(Cl)cc2)c2ccc3nc(Cl)c(-c4ccccc4)c(Cl)c3c2)s1 (stereo not drawn)
56

Another molecule to look at: COc1c(-c2ccccc2)c(C(F)(F)F)nc2ccc(C(O)(c3ccc(Cl)cc3)c3cncn3C)cc12 (stereo not drawn) [Example 33a]
98

Another molecule to look at: CC(=O)N1CCC(C(O)(c2ccc(C(F)(F)F)nc2)c2cc(C)c3nc(C#N)c(-c4ccccc4)c(C#N)c3c2)CC1 (single isomer, unassigned) [Example 27b]
80

###

System: IL-17 production by CD4 T cells
Protocol summary: Human Th17 Assay (IL-17 production by CD4 T cells under Th17 differentiation conditions)
Type: cell-based
Condition info: Homo sapiens, CD4+ T, 72 h, 3 days, IL-17 in supernatant
Field: label. Allowed values: fulfilled (IC50 < 200 nM) or not fulfilled (IC50 >= 200 nM).

Quick check: does CC(=O)N1CCC(C(O)(c2ccccc2)c2cc(C)c3nc(C#N)c(-c4ccccc4)c(C#N)c3c2)CC1 (single isomer, unassigned) [Example 21c] have IC50 under 200 nM?
fulfilled

Another compound to look at: COc1nc2ccc(C(O)(c3ccc(C(F)(F)F)nc3)c3cncn3C)cc2c(Cl)c1-c1cncnc1 (centres unmarked)
not fulfilled

Another compound to look at: Cc1nc(C)c(C(O)(c2ccc3nc(C#N)c(-c4ccccc4)c(C#N)c3c2)c2cnnn2C)s1 (single isomer, unassigned) [Example 47c]
fulfilled

Another compound to look at: COc1nc2ccc(C(O)(c3ccc(C(F)(F)F)nc3)c3cncn3C)cc2c(Cl)c1-c1ccc(C#N)cc1 (centres unmarked)
fulfilled

Another compound to look at: COc1c(-c2ccccc2)c(C(F)(F)F)nc2ccc(C(O)(c3ccc(Cl)cc3)c3cncn3C)cc12 (single isomer, unassigned) [Example 33c]
not fulfilled

Another compound to look at: Cc1cc(C(O)(c2ccc(C(F)(F)F)nc2)c2cncn2C)cc2c(C#N)c(-c3ccccc3)c(C#N)nc12 (single isomer, unassigned) [Example 25c]
fulfilled

Another compound to look at: COc1nc2ccc(C(O)(c3cncn3C)C3CCN(C(C)=O)CC3)cc2c(Cl)c1-c1cccc(C(F)(F)F)c1 (single isomer, unassigned)
not fulfilled

Another compound to look at: CC(=O)N1CCC(C(O)(c2ccc3nc(C(F)(F)F)c(-c4ccccc4)c(Cl)c3c2)c2cncn2C)CC1 (single isomer, unassigned) [Example 34c]
not fulfilled

Another compound to look at: COc1nc2c(C)cc(C(O)(c3ccc(C(F)(F)F)nc3)c3cncn3C)cc2c(C#N)c1-c1ccc(OC(F)(F)F)cc1 (single isomer, unassigned) [Example 19b]
not fulfilled

Another compound to look at: Cn1cncc1C(O)(c1ccc2nc(C(F)(F)F)c(-c3ccccc3)c(Cl)c2c1)c1ccccn1 (centres unmarked)
not fulfilled

Another compound to look at: Cc1cc(C(O)(c2ccc(Cl)cc2)c2cncn2C)cc2c(C#N)c(-c3ccccc3)c(C#N)nc12 (single isomer, unassigned) [Example 23c]
not fulfilled

Another compound to look at: COc1c(-c2ccccc2)c(Cl)nc2ccc(C(O)(c3cnnn3C)c3cnc(C)n3C)cc12 (single isomer, unassigned) [Example 40c]
not fulfilled

Another compound to look at: COc1nc2ccc(C(O)(c3cncn3C)c3cnnn3C)cc2c(C#N)c1-c1cccc(C(F)(F)F)c1 (single isomer, unassigned)
fulfilled
